Numbers sourced from the supplement of paper PMC10567573.

B1: FBXO3 (parent)
chain: DEEERRRRVFDVPIRRRRCSRLF

Variants of: B1
Assay: protein stability index of a GFP-peptide fusion (GPS, HEK-293T) (PSI 1-6); higher = more stable;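 also: lentivirally expressed fusions sorted by FACS into six bins by GFP to DsRed ratio, PSI derived from sequencing read proportions per bin multiplied by bin number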
Settings: c terminus: native
PROPERTY LABEL: protein stability index
# answer = number (no unit)

MUTATION LIST	protein stability index
S20C	4.36
I14H	2.48
V9F	2.19
S20G	3.48
F23C	2.65

Dear colleague, I am looking for the recorded protein stability index of the following variant: "R21K" 3.27

Dear colleague, I am looking for the recorded protein stability index of the following variant: "D11I" 2.93

Dear colleague, I am looking for the recorded protein stability index of the following variant: "E2F" 1.97

Dear colleague, I am looking for the recorded protein stability index of the following variant: "R21S" 4.35

Dear colleague, I am looking for the recorded protein stability index of the following variant: "R15L" 1.98

Dear colleague, I am looking for the recorded protein stability index of the following variant: "E3R" 2.34

Dear colleague, I am looking for the recorded protein stability index of the following variant: "R7A" 3.6

Dear colleague, I am looking for the recorded protein stability index of the following variant: "F23G" 2.86

Dear colleague, I am looking for the recorded protein stability index of the following variant: "R7M" 2.3

Dear colleague, I am looking for the recorded protein stability index of the following variant: "R18G" 3.74

Dear colleague, I am looking for the recorded protein stability index of the following variant: "C19Q" 4.39

Dear colleague, I am looking for the recorded protein stability index of the following variant: "E3K" 2.68

Dear colleague, I am looking for the recorded protein stability index of the following variant: "R15N" 2.21
